Listing of entries alongside the reported IC50 ratio.
# ASSAYED_SYSTEM: Delta-type opioid receptor (Mus musculus)
# TEST_SUMMARY: Opioid receptor delta antagonistic activity was measured by the displacement of DADLE in the mouse vas deferens at tha concentration of 200 nM
# Type: functional
TEST_READOUT: IC50 ratio

INSERT INTO measurements (item_smiles, result) VALUES
  ('COc1ccc2[nH]c3c(c2c1)C[C@@]1(O)[C@H]2Cc4ccc(O)c5c4[C@@]1(CCN2CC1CC1)[C@H]3O5', 53),
  ('Cc1ccc2[nH]c3c(c2c1)C[C@@]1(O)[C@H]2Cc4ccc(O)c5c4[C@@]1(CCN2CC1CC1)[C@H]3O5', 55.4),
  ('O=[N+]([O-])c1ccc2[nH]c3c(c2c1)C[C@@]1(O)[C@H]2Cc4ccc(O)c5c4[C@@]1(CCN2CC1CC1)[C@H]3O5', 2.4),
  ('Oc1ccc2c3c1O[C@H]1c4[nH]c5ccc(F)cc5c4C[C@@]4(O)[C@@H](C2)N(CC2CC2)CC[C@]314', 104);

----------
# ASSAYED_SYSTEM: Delta-type opioid receptor (Mus musculus) (UniProt P32300)
# Sequence (P32300 whole entry): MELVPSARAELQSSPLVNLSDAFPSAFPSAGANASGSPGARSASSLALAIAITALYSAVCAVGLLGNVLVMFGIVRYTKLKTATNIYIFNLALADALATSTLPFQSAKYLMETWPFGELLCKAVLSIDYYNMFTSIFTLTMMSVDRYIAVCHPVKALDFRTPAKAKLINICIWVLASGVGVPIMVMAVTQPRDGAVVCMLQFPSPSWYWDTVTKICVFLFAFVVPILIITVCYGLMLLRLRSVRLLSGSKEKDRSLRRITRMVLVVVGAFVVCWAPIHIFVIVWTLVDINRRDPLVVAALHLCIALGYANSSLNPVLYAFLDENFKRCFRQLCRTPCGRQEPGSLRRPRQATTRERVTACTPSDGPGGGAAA
# TEST_SUMMARY: Opioid receptor delta antagonistic activity was measured by the displacement of DADLE in the mouse vas deferens at a concentration of 100 nM
# Format: functional
Where a SMILES comes first, the peptide text is derived from it. [ ]: non-standard residue; d: D form. The star is where a group is joined. Tyr(Nα,Nα-allyl2) = C=CCN(CC=C)[C@@H](Cc1ccc(O)cc1)C(=O)*; Aib = CC(C)(N)C(=O)O
Lab note: anything with IC50 ratio below 20 is marked YES; values at 20 or higher are marked NO.

INSERT INTO measurements (compound, assayed_system, category) VALUES
  ('CN1CC[C@]23c4c5ccc(O)c4O[C@H]2c2c(c4ccccc4n2C)C[C@@]3(O)[C@H]1C5', 'Delta-type opioid receptor (Mus musculus) (UniProt P32300)', 'YES'),
  ('Oc1ccc2c3c1O[C@H]1c4[nH]c5c(Br)cccc5c4C[C@@]4(O)[C@@H](C2)N(CC2CC2)CC[C@]314', 'Delta-type opioid receptor (Mus musculus) (UniProt P32300)', 'NO'),
  ('CCOc1cccc2c3c([nH]c12)[C@@H]1Oc2c(O)ccc4c2[C@@]12CCN(CC1CC1)[C@H](C4)[C@]2(O)C3', 'Delta-type opioid receptor (Mus musculus) (UniProt P32300)', 'NO'),
  ('Oc1ccc2c3c1O[C@H]1c4[nH]c5c(F)cccc5c4C[C@@]4(O)[C@@H](C2)N(CC2CC2)CC[C@]314', 'Delta-type opioid receptor (Mus musculus) (UniProt P32300)', 'NO'),
  ('Oc1ccc2[nH]c3c(c2c1)C[C@@]1(O)[C@H]2Cc4ccc(O)c5c4[C@@]1(CCN2CC1CC1)[C@H]3O5', 'Delta-type opioid receptor (Mus musculus) (UniProt P32300)', 'YES'),
  ('C=CCN(CC=C)[C@@H](Cc1ccc(O)cc1)C(=O)NC(C)(C)C(=O)NC(C)(C)C(=O)N[C@@H](Cc1ccccc1)C(=O)N[C@@H](CC(C)C)C(=O)O ({Tyr(Nα,Nα-allyl2)}-[Aib][Aib]FL-OH)', 'Delta-type opioid receptor (Mus musculus) (UniProt P32300)', 'YES'),
  ('CC(=O)O[C@@]12Cc3c([nH]c4ccccc34)[C@@H]3Oc4c(O)ccc5c4[C@@]31CCN(CC1CC1)[C@@H]2C5', 'Delta-type opioid receptor (Mus musculus) (UniProt P32300)', 'NO'),
  ('CN1CC[C@]23c4c5ccc(O)c4O[C@H]2c2[nH]c4ccccc4c2C[C@@]3(O)[C@H]1C5', 'Delta-type opioid receptor (Mus musculus) (UniProt P32300)', 'YES'),
  ('COc1cccc2c3c([nH]c12)[C@@H]1Oc2c(O)ccc4c2[C@@]12CCN(CC1CC1)[C@H](C4)[C@]2(O)C3', 'Delta-type opioid receptor (Mus musculus) (UniProt P32300)', 'NO'),
  ('COc1ccc2c3c1O[C@H]1c4[nH]c5ccccc5c4C[C@@]4(O)[C@@H](C2)N(CC2CC2)CC[C@]314', 'Delta-type opioid receptor (Mus musculus) (UniProt P32300)', 'YES'),
  ('Cc1ccc2c3c([nH]c2c1)[C@@H]1Oc2c(O)ccc4c2[C@@]12CCN(CC1CC1)[C@H](C4)[C@]2(O)C3', 'Delta-type opioid receptor (Mus musculus) (UniProt P32300)', 'NO'),
  ('Oc1ccc2c3c1O[C@H]1c4[nH]c5c(O)cccc5c4C[C@@]4(O)[C@@H](C2)N(CC2CC2)CC[C@]314', 'Delta-type opioid receptor (Mus musculus) (UniProt P32300)', 'NO'),
  ('Oc1ccc2c3c1O[C@H]1c4[nH]c5c(ccc6ccccc65)c4C[C@@]4(O)[C@@H](C2)N(CC2CC2)CC[C@]314', 'Delta-type opioid receptor (Mus musculus) (UniProt P32300)', 'YES'),
  ('Cc1cccc2c3c([nH]c12)[C@@H]1Oc2c(O)ccc4c2[C@@]12CCN(CC1CC1)[C@H](C4)[C@]2(O)C3', 'Delta-type opioid receptor (Mus musculus) (UniProt P32300)', 'NO');

----------
Ke values by entry
# ASSAYED_SYSTEM: Mu-type opioid receptor (Cavia porcellus) (UniProt P97266)
# Sequence (P97266 whole entry): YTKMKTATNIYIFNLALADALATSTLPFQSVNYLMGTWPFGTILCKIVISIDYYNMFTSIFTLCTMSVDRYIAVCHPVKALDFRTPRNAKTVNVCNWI
# TEST_SUMMARY: Antagonist potency was determined as the ratio of [antagonist] to (IC50 ratio-1) for Opioid receptor mu 1
# Format: functional
Where a SMILES comes first, the peptide text is derived from it. [ ]: non-standard residue; d: D form. The star is where a group is joined. Tyr(Nα,Nα-allyl2) = C=CCN(CC=C)[C@@H](Cc1ccc(O)cc1)C(=O)*; Aib = CC(C)(N)C(=O)O
TEST_READOUT: Ke

INSERT INTO results (molecule, result) VALUES
  ('Oc1ccc2c3c1O[C@H]1c4[nH]c5c(O)cccc5c4C[C@@]4(O)[C@@H](C2)N(CC2CC2)CC[C@]314', '> 111 nM'),
  ('CC(=O)O[C@@]12Cc3c([nH]c4ccccc34)[C@@H]3Oc4c(O)ccc5c4[C@@]31CCN(CC1CC1)[C@@H]2C5', '> 263 nM'),
  ('COc1cccc2c3c([nH]c12)[C@@H]1Oc2c(O)ccc4c2[C@@]12CCN(CC1CC1)[C@H](C4)[C@]2(O)C3', '50 nM'),
  ('CCOc1cccc2c3c([nH]c12)[C@@H]1Oc2c(O)ccc4c2[C@@]12CCN(CC1CC1)[C@H](C4)[C@]2(O)C3', '13 nM'),
  ('Oc1ccc2c3c1O[C@H]1c4[nH]c5c(ccc6ccccc65)c4C[C@@]4(O)[C@@H](C2)N(CC2CC2)CC[C@]314', '> 500 nM'),
  ('Oc1ccc2c3c1O[C@H]1c4[nH]c5c(F)cccc5c4C[C@@]4(O)[C@@H](C2)N(CC2CC2)CC[C@]314', '23 nM'),
  ('C=CCN(CC=C)[C@@H](Cc1ccc(O)cc1)C(=O)NC(C)(C)C(=O)NC(C)(C)C(=O)N[C@@H](Cc1ccccc1)C(=O)N[C@@H](CC(C)C)C(=O)O ({Tyr(Nα,Nα-allyl2)}-[Aib][Aib]FL-OH)', '> 1670 nM'),
  ('Oc1ccc2[nH]c3c(c2c1)C[C@@]1(O)[C@H]2Cc4ccc(O)c5c4[C@@]1(CCN2CC1CC1)[C@H]3O5', '19 nM'),
  ('CN1CC[C@]23c4c5ccc(O)c4O[C@H]2c2[nH]c4ccccc4c2C[C@@]3(O)[C@H]1C5 [OXYMORPHINDOLE]', '> 111 nM'),
  ('Cc1ccc2c3c([nH]c2c1)[C@@H]1Oc2c(O)ccc4c2[C@@]12CCN(CC1CC1)[C@H](C4)[C@]2(O)C3', '55 nM'),
  ('Oc1ccc2c3c1O[C@H]1c4[nH]c5cc(F)ccc5c4C[C@@]4(O)[C@@H](C2)N(CC2CC2)CC[C@]314', '> 125 nM'),
  ('COc1ccc2c3c1O[C@H]1c4[nH]c5ccccc5c4C[C@@]4(O)[C@@H](C2)N(CC2CC2)CC[C@]314', '> 333 nM'),
  ('Oc1ccc2c3c1O[C@H]1c4c(c5ccccc5n4-c4ccccc4)C[C@@]4(O)[C@@H](C2)N(CC2CC2)CC[C@]314', '> 149 nM'),
  ('Cc1ccc2[nH]c3c(c2c1)C[C@@]1(O)[C@H]2Cc4ccc(O)c5c4[C@@]1(CCN2CC1CC1)[C@H]3O5', '> 167 nM');

----------
# ASSAYED_SYSTEM: Opioid receptors; delta & kappa (Homo sapiens) (UniProt P41145+P41143)
# Sequence (P41143 whole entry, looked up): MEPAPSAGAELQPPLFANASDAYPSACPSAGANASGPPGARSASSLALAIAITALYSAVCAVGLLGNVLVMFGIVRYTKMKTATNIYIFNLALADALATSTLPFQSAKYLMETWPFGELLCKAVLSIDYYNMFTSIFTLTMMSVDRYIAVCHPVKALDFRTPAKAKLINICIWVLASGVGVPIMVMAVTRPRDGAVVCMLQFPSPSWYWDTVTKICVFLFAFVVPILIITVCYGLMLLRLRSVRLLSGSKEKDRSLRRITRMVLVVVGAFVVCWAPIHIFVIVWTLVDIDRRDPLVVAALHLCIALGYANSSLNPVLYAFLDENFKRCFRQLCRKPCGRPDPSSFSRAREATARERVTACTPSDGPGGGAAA
# Sequence (P41145 whole entry, looked up): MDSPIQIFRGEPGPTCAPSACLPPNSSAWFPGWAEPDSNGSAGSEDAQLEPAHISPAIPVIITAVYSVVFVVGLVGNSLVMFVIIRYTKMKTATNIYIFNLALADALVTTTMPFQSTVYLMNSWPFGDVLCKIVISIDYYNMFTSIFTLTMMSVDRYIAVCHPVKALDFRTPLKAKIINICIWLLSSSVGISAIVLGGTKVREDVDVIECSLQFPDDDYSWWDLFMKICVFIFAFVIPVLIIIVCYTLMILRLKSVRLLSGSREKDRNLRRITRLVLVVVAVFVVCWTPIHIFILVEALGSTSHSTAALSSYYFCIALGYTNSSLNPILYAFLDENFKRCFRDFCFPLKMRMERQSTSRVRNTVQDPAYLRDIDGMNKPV
# TEST_SUMMARY: Selectivity ratio was determined from Ke value of Opioid receptor kappa 1 and Opioid receptor delta 1
# Format: protein assay
# MEASUREMENT_PARAMETERS: Cavia porcellus
Overview of reported Selectivity ratio across a group of compounds:
TEST_READOUT: Selectivity ratio

INSERT INTO assay_data (item_smiles, test_readout, result) VALUES
  ('Oc1ccc2c3c1O[C@H]1c4c(c5ccccc5n4-c4ccccc4)C[C@@]4(O)[C@@H](C2)N(CC2CC2)CC[C@]314', 'Selectivity ratio', '> 49'),
  ('COc1cccc2c3c([nH]c12)[C@@H]1Oc2c(O)ccc4c2[C@@]12CCN(CC1CC1)[C@H](C4)[C@]2(O)C3', 'Selectivity ratio', '> 120'),
  ('Cc1ccc2c3c([nH]c2c1)[C@@H]1Oc2c(O)ccc4c2[C@@]12CCN(CC1CC1)[C@H](C4)[C@]2(O)C3', 'Selectivity ratio', '> 41'),
  ('C=CCN1CC[C@]23c4c5ccc(O)c4O[C@H]2c2[nH]c4ccccc4c2C[C@@]3(O)[C@H]1C5', 'Selectivity ratio', '> 75');
